- Target entity: c-Src SH2;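 further: peptide library displayed on the E. coli surface as eCPX fusions, selected cells deep-sequenced, score is each peptide's frequency after selection divided by its frequency in the input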
- Measurement description: SH2 binding enrichment of the phosphorylated peptide, bacterial display (enrichment ratio); higher = better substrate or ligand; peptides without Tyr show the background
Each entry gets N if its SH2 binding enrichment stays under 0.5, and Y if its SH2 binding enrichment is 0.5 or above.

{"columns": ["Item sequence", "Target entity", "Class name"],
 "data": [
  ["LTERGYSFTTT [ACTB_Y198]", "c-Src SH2", "Y"],
  ["YEEDSYVTRSQ [RET_Y905_K907T]", "c-Src SH2", "Y"],
  ["DPEATYTTSGS [EPHA2_Y772_G777S]", "c-Src SH2", "Y"],
  ["SLLKDYSPQLQ [OTC_Y345_T343K]", "c-Src SH2", "N"],
  ["HSGVSYYINLC [IGF2R_Y2024_N2020S]", "c-Src SH2", "Y"],
  ["GSESDYIIMPN [SCARB1_Y133_V135I]", "c-Src SH2", "N"],
  ["RLQEDYDHSFF [ESD_Y258_G257D_YF]", "c-Src SH2", "N"],
  ["CGTPEYRAPEI [PRKACA_Y205_L206R]", "c-Src SH2", "Y"],
  ["QTSTDYDIRFF [CSNK2A1_Y131_L128S_YF]", "c-Src SH2", "N"],
  ["NTADYYDLYGG [PTPN11_Y63_G60A]", "c-Src SH2", "Y"],
  ["LENQTYFKSFE [AKAP9_Y2482]", "c-Src SH2", "Y"],
  ["RCYVYYYSYLL [PTEN_Y177_R173C]", "c-Src SH2", "N"],
  ["IQKKFYRAILE [CHD7_Y1218_YF]", "c-Src SH2", "Y"]
]}
